Quick reference: Kb of the listed items.
# measuredTarget: CB1 (Homo sapiens)
# Sequence (P21554 whole entry): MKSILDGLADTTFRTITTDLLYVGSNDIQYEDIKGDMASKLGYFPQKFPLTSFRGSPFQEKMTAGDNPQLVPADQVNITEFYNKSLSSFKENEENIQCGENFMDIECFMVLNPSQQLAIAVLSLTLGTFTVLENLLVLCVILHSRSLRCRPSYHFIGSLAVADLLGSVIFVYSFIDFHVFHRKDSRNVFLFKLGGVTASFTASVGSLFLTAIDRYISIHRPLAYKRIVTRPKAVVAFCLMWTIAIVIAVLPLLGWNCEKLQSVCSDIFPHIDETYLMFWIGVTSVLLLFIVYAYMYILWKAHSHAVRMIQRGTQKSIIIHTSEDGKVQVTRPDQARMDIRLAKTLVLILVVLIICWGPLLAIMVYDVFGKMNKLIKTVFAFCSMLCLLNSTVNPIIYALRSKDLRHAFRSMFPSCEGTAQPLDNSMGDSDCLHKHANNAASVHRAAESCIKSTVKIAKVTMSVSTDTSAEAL
# Assay type: cell-based
The response must be a number in nM with no trailing unit.

Known results for molecules:
| molecule | Kb, nM |
| --- | --- |
| CC(C)(C)OC(=O)NC1(c2ccccc2)CCN(c2ncnc3c2nc(-c2ccccc2Cl)n3-c2ccc(Cl)cc2)CC1 [Compound 10] | 3.9 |
| CCCCNC(=O)NC1(c2ccccc2)CCN(c2ncnc3c2nc(-c2ccccc2Cl)n3-c2ccc(Cl)cc2)CC1 [Compound 13e] | 62 |
| CCCCNC(=O)NC1CCN(c2ncnc3c2nc(-c2ccccc2Cl)n3-c2ccc(Cl)cc2)CC1 [Compound 17f] | 49 |

Prompt: Fill in the blank: the reported Kb of NC1(c2ccccc2)CCN(c2ncnc3c2nc(-c2ccccc2Cl)n3-c2ccc(Cl)cc2)CC1 [Compound 11] is ____.
Response: 15.9

Prompt: Fill in the blank: the reported Kb of CCCNC(=O)N1CCC(Nc2ncnc3c2nc(-c2ccccc2Cl)n3-c2ccc(Cl)cc2)CC1 [Compound 14e] is ____.
Response: 1960

Prompt: Fill in the blank: the reported Kb of CS(=O)(=O)NC1CCN(c2ncnc3c2nc(-c2ccccc2Cl)n3-c2ccc(Cl)cc2)CC1 [Compound 17h] is ____.
Response: 71

Prompt: Fill in the blank: the reported Kb of CC(C)NC(=O)NC1CCN(c2ncnc3c2nc(-c2ccccc2Cl)n3-c2ccc(Cl)cc2)CC1 [Compound 17d] is ____.
Response: 133

Prompt: Fill in the blank: the reported Kb of CC(=O)N1CCC[C@H](Nc2ncnc3c2nc(-c2ccccc2Cl)n3-c2ccc(Cl)cc2)C1 [Compound 16d] is ____.
Response: 4450

Prompt: Fill in the blank: the reported Kb of CS(=O)(=O)N1CCC[C@@H](Nc2ncnc3c2nc(-c2ccccc2Cl)n3-c2ccc(Cl)cc2)C1 [Compound 15e] is ____.
Response: 346

Prompt: Fill in the blank: the reported Kb of CCOC(=O)CNC(=O)NC1(c2ccccc2)CCN(c2ncnc3c2nc(-c2ccccc2Cl)n3-c2ccc(Cl)cc2)CC1 [Compound 13f] is ____.
Response: 171

Prompt: Fill in the blank: the reported Kb of O=C(NC1CCCCC1)NC1(c2ccccc2)CCN(c2ncnc3c2nc(-c2ccccc2Cl)n3-c2ccc(Cl)cc2)CC1 [Compound 13g] is ____.
Response: 199

Prompt: Fill in the blank: the reported Kb of CCNC(=O)NC1(c2ccccc2)CCN(c2ncnc3c2nc(-c2ccccc2Cl)n3-c2ccc(Cl)cc2)CC1 [Compound 13b] is ____.
Response: 443

Prompt: Fill in the blank: the reported Kb of CC(C)NC(=O)N1CCC(Nc2ncnc3c2nc(-c2ccccc2Cl)n3-c2ccc(Cl)cc2)CC1 [Compound 14d] is ____.
Response: 495

Prompt: Fill in the blank: the reported Kb of CCNC(=O)NC1CCN(c2ncnc3c2nc(-c2ccccc2Cl)n3-c2ccc(Cl)cc2)CC1 [Compound 17c] is ____.
Response: 149

Prompt: Fill in the blank: the reported Kb of CCCNC(=O)NC1CCN(c2ncnc3c2nc(-c2ccccc2Cl)n3-c2ccc(Cl)cc2)CC1 [Compound 17e] is ____.
Response: 132
